Molecular target: Dihydroorotate dehydrogenase (quinone), mitochondrial (Homo sapiens)
Sequence (Q02127 whole entry): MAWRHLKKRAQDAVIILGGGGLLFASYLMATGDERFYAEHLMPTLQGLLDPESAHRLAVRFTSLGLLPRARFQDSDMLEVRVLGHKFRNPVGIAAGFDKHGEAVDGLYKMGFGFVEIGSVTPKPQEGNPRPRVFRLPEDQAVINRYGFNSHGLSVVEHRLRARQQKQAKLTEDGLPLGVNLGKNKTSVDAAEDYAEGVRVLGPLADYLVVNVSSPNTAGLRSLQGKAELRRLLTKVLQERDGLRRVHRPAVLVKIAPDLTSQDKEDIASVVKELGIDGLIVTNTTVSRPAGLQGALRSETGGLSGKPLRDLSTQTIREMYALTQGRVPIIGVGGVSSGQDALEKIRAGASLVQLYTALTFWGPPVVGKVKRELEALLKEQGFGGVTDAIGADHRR
Experiment: Immunosuppressive effect in an isolated enzyme assay using partially purified Dihydroorotate dehydrogenase from human liver for inhibition of the formation of orotate from radiolabeled dihydroorotate
Each entry below lists one item and its recorded pKi value.
// field semantics: pKi = negative decimal log of concentration (mol/L)

In [3]: df
Out[3]:
                          chemicalstructure                        experimentaltarget  testresult
0  COc1ccccc1-c1cccc2c1CCN2c1nc2ccc(F)cc2c(C(=O)O)c1C  Dihydroorotate dehydrogenase (quinone), mitochondrial (Homo sapiens)        7.52
1  Cc1c(Nc2cccc(-c3ccccc3)c2)nc2ccc(F)cc2c1C(=O)O  Dihydroorotate dehydrogenase (quinone), mitochondrial (Homo sapiens)        7.08
2  COc1cc(-c2ccccc2)c2c(c1)N(c1nc3ccc(F)cc3c(C(=O)O)c1C)CC2  Dihydroorotate dehydrogenase (quinone), mitochondrial (Homo sapiens)        7.66
3  Cc1c(-c2cn(C)c3c(-c4cccc(C(F)(F)F)c4)cccc23)nc2ccc(F)cc2c1C(=O)O  Dihydroorotate dehydrogenase (quinone), mitochondrial (Homo sapiens)        7.64
4  Cc1c(-n2cnc3c(-c4ccccc4)cccc32)nc2ccc(F)cc2c1C(=O)O  Dihydroorotate dehydrogenase (quinone), mitochondrial (Homo sapiens)        7.15
5  COc1cccc(-c2cccc3c(-c4nc5ccc(F)cc5c(C(=O)O)c4C)cn(C)c23)c1  Dihydroorotate dehydrogenase (quinone), mitochondrial (Homo sapiens)        7.49

Req: // map COc1ccccc1-c1cccc2c(-c3nc4ccc(F)cc4c(C(=O)O)c3C)cn(C)c12 to recorded pKi (system: Dihydroorotate dehydrogenase (quinone), mitochondrial (Homo sapiens))
Resp: 7.40

Req: Provide value of pKi for this record tested with Dihydroorotate dehydrogenase (quinone), mitochondrial (Homo sapiens): Cc1c(N2CCc3c(-c4cccc(C(F)(F)F)c4)cccc32)nc2ccc(F)cc2c1C(=O)O
Resp: 7.62

Req: Form field - read-out: pKi; system: Dihydroorotate dehydrogenase (quinone), mitochondrial (Homo sapiens); submitted item: Cc1c(OCc2cccc(-c3ccccc3)c2)nc2ccc(F)cc2c1C(=O)O
Resp: 6.48

Req: Query pKi on Dihydroorotate dehydrogenase (quinone), mitochondrial (Homo sapiens) for Cc1c(-n2ccc3c(-c4ccccc4)cccc32)nc2ccc(F)cc2c1C(=O)O
Resp: 8.35

Req: I'm curious: which pKi was measured for Cc1ccccc1-c1cccc2c1CCN2c1nc2ccc(F)cc2c(C(=O)O)c1C tested on Dihydroorotate dehydrogenase (quinone), mitochondrial (Homo sapiens)?
Resp: 7.60

Req: Form field - read-out: pKi; system: Dihydroorotate dehydrogenase (quinone), mitochondrial (Homo sapiens); submitted item: Cc1c(N2CCc3c(-c4ccccc4)cc(F)cc32)nc2ccc(F)cc2c1C(=O)O
Resp: 7.52

Req: Which pKi is reported with Dihydroorotate dehydrogenase (quinone), mitochondrial (Homo sapiens) for this entry: Cc1c(N2CCc3c(-c4ccccc4F)cccc32)nc2ccc(F)cc2c1C(=O)O ?
Resp: 7.62

Req: // lookup pKi | system=Dihydroorotate dehydrogenase (quinone), mitochondrial (Homo sapiens) | key= COc1cccc(-c2cccc3c2CCN3c2nc3ccc(F)cc3c(C(=O)O)c2C)c1
Resp: 7.47

Req: Provide value of pKi for this record tested with Dihydroorotate dehydrogenase (quinone), mitochondrial (Homo sapiens): Cc1c(-c2cn(C)c3c(-c4ccccc4)cccc23)nc2ccc(F)cc2c1C(=O)O
Resp: 7.57
